# experimental_target: UniProtKB P33261
# Sequence (P33261 whole entry): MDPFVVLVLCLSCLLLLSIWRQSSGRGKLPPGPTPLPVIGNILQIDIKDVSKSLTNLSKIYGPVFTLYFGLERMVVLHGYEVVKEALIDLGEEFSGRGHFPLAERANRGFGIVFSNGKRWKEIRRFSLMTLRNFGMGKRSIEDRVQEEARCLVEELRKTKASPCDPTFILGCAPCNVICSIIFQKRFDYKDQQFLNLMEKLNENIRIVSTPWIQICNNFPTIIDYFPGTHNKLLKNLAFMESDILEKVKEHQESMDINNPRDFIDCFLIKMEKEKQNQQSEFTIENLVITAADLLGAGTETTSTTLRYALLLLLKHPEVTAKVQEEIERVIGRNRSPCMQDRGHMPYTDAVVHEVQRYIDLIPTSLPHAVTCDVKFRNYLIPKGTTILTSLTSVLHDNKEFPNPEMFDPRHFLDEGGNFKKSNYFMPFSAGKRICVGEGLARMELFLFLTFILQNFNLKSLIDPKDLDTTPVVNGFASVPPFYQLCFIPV
result_type: IC50 (nM)
The figure you give is taken to be in nM; do not add the unit.

// fetch UniProtKB P33261 IC50 for Cc1cc(C#N)cc(C)c1Oc1nc(Nc2ccc(C#N)cc2)nc(N)c1Br [ETR, etravirine, reference compound]
500

----------
# method_description: Pharmacokinetics after iv and oral dosing
# Type: in vivo, BALB/c mice
# stated_conditions: mouse, plasma; iv 2 mg/kg, female BALB/c mice
result_type: clearance (mL/min/kg)
Lab book: enter the figure in mL/min/kg, no units written.

Given the entry `Cc1cc(C#N)cc(C)c1Oc1nc(NC2CCN(Cc3ccc(S(N)(=O)=O)cc3)CC2)nc2ccsc12` , report its measured clearance.
69.2

----------
# method_description: Pharmacokinetics after iv and oral dosing
# Type: in vivo, BALB/c mice
# stated_conditions: male, BALB/c, mouse, plasma, po, 30 mg/kg, po 30 mg/kg, male BALB/c mice; read-out: Cmax
result_type: Cmax (ng/mL)
Write down the numeric answer in ng/mL and omit the unit.

Please report the recorded Cmax for Cc1cc(C#N)cc(C)c1Oc1nc(NC2CCN(Cc3ccc(S(N)(=O)=O)cc3)CC2)nc2ccsc12 [K-5a2] .
345

----------
# method_description: Pharmacokinetics after iv and oral dosing
# Assay type: in vivo, BALB/c mice
# stated_conditions: female, BALB/c, mouse, plasma, po, 60 mg/kg, po 60 mg/kg, female BALB/c mice; read-out: Cmax
result_type: Cmax

Field request: Cmax | item: `Cc1cc(C#N)cc(C)c1Oc1nc(NC2CCN(Cc3ccc(S(N)(=O)=O)cc3)CC2)nc2ccsc12`
1100 ng/mL

----------
# method_description: Pharmacokinetics after iv and oral dosing
# Type: in vivo, BALB/c mice
# stated_conditions: mouse, plasma; iv 2 mg/kg, male BALB/c mice
result_type: clearance (L/h/kg)
Please reply with the bare figure in L/h/kg and do not write the unit itself.

Returns the measured clearance for the input compound. Input: `Cc1cc(C#N)cc(C)c1Oc1nc(NC2CCN(Cc3ccc(S(N)(=O)=O)cc3)CC2)nc2ccsc12`
4.23

----------
# experimental_target: CYP2D6 (Homo sapiens, UniProt P10635)
# Sequence (P10635 whole entry): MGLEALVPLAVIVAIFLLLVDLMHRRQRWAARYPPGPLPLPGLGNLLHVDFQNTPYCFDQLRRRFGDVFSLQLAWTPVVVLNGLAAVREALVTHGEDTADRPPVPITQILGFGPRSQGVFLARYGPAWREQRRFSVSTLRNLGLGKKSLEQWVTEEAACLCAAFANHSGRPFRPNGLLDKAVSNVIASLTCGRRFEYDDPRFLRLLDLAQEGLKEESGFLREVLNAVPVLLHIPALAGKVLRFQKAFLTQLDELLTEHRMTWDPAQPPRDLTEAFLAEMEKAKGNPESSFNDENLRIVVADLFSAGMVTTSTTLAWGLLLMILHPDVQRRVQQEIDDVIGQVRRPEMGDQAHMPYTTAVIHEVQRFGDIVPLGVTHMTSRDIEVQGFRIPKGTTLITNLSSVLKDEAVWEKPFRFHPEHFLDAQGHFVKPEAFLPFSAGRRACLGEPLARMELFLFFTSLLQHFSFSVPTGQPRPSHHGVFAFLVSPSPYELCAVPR
result_type: IC50 (µM)
API: value field is a number in µM; no unit string.

Query: IC50; subject: Cc1cc(C#N)cc(C)c1Oc1nc(Nc2ccc(C#N)cc2)nc(N)c1Br [ETR, etravirine, reference compound]
12

----------
# method_description: Pharmacokinetics after iv and oral dosing
# Format: in vivo, BALB/c mice
# stated_conditions: mouse, plasma; po 60 mg/kg, female BALB/c mice; read-out: t1/2z (converted)
result_type: half-life (h)
Answer with a number only, understood to be in h.

What value of measured half-life is listed for `Cc1cc(C#N)cc(C)c1Oc1nc(NC2CCN(Cc3ccc(S(N)(=O)=O)cc3)CC2)nc2ccsc12` ?
1.19

----------
# method_description: Pharmacokinetics after iv and oral dosing
# Format: in vivo, BALB/c mice
# stated_conditions: mouse, plasma; po 30 mg/kg, female BALB/c mice
result_type: AUC(0-t) (ng·h/mL)
Please state the figure in ng·h/mL; there is no need to write the unit.

So what's the measured AUC(0-t) for this one? `Cc1cc(C#N)cc(C)c1Oc1nc(NC2CCN(Cc3ccc(S(N)(=O)=O)cc3)CC2)nc2ccsc12`
488

Data origin: paper PMC9699427
